Taken from ChEMBL document CHEMBL1932980.

- test system: Adenosine receptor A1 (Homo sapiens) (UniProt P30542)
- Sequence (whole entry): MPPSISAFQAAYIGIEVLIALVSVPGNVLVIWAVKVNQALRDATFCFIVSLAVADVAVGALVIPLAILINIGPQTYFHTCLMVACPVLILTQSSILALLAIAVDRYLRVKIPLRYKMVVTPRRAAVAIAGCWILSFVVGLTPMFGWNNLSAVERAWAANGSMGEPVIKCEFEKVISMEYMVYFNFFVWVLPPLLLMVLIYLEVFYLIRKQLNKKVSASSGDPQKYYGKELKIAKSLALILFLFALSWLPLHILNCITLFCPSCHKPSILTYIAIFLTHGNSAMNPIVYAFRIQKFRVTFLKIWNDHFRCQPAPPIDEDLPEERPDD
- assay explanation: Allosteric enhancer activity at recombinant human A1 adenosine receptor expressed in CHO cells assessed as change in forskolin-induced cAMP production at 10 uM after 6 mins by radioimmunoassay
- Type: functional, cell-based
Listed below: Activity values for each entry.
# output: bare number, implied unit %

Would you please look over these solved cases?
# structure string, value unit, Activity
data = [
    ("Nc1scc(CN2CCN(c3c(F)cccc3F)CC2)c1C(=O)c1ccc(Cl)cc1", "%", -80),
    ("Nc1scc(CN2CCN(c3cc(Cl)ccc3Cl)CC2)c1C(=O)c1ccc(Cl)cc1", "%", -62),
    ("Nc1scc(CN2CCN(c3ccccc3C(F)(F)F)CC2)c1C(=O)c1ccc(Cl)cc1", "%", -60),
    ("Cc1sc(N)c(C(=O)c2cccc(C(F)(F)F)c2)c1C", "%", -57),
    ("Nc1scc(CN2CCN(c3cccc(Cl)c3Cl)CC2)c1C(=O)c1ccc(Cl)cc1", "%", -77),
]

Query block: Report measured Activity; entry is Nc1scc(CN2CCN(c3cc(Cl)cc(Cl)c3)CC2)c1C(=O)c1ccc(Cl)cc1
Result block: -74

Query block: Quote Activity reported for Nc1scc(CN2CCN(c3ccc(F)c(Cl)c3)CC2)c1C(=O)c1ccc(Cl)cc1 please.
Result block: -78

Query block: # return recorded Activity for entry Nc1scc(CN2CCN(C(=O)c3ccc(Cl)cc3)CC2)c1C(=O)c1ccc(Cl)cc1
Result block: -60

---

- test system: Adenosine receptor A1 (Homo sapiens)
- assay explanation: Displacement of [3H]DPCPX from recombinant human A1 adenosine receptor expressed in CHO cells at 10 uM after 120 mins by scintillation counting
- Type: cell-based
inhibition overview
A number alone suffices; assume %.

A selection of reference data follows.
# structure string, test system, inhibition (%)
measured = [
    ("Nc1scc(CN2CCN(C3CCCCCC3)CC2)c1C(=O)c1ccc(Cl)cc1", "Adenosine receptor A1 (Homo sapiens)", 0),
    ("Nc1scc(CN2CCN(c3cccc(F)c3)CC2)c1C(=O)c1ccc(Cl)cc1", "Adenosine receptor A1 (Homo sapiens)", 1),
    ("COc1ccc(N2CCN(Cc3csc(N)c3C(=O)c3ccc(Cl)cc3)CC2)cc1", "Adenosine receptor A1 (Homo sapiens)", 0),
    ("Nc1scc(CN2CCN(CC(=O)c3ccc(Cl)cc3)CC2)c1C(=O)c1ccc(Cl)cc1", "Adenosine receptor A1 (Homo sapiens)", 0),
]

Query block: Enter measured inhibition, system Adenosine receptor A1 (Homo sapiens), for the molecule shown: Nc1scc(CN2CCN(c3cccc(Cl)c3Cl)CC2)c1C(=O)c1ccc(Cl)cc1
Result block: 2

Query block: // fetch inhibition for Nc1scc(CN2CCN(C3CCCC3)CC2)c1C(=O)c1ccc(Cl)cc1 ; system: Adenosine receptor A1 (Homo sapiens)
Result block: 0

Query block: Write down measured inhibition (Adenosine receptor A1 (Homo sapiens)) for this molecule. Nc1scc(CN2CCN(c3ccc(Cl)cc3Cl)CC2)c1C(=O)c1ccc(Cl)cc1
Result block: 0
